biological target: recombinant human estradiol receptors (rhER) beta 1 (β1) (Homo sapiens, UniProt Q92731); assay: in vitro competitive binding assay, displacement of [3H]estradiol from rhER beta 1; settings: running text; highest concentration 2.5×E−4 M
Sequence (Q92731 whole entry): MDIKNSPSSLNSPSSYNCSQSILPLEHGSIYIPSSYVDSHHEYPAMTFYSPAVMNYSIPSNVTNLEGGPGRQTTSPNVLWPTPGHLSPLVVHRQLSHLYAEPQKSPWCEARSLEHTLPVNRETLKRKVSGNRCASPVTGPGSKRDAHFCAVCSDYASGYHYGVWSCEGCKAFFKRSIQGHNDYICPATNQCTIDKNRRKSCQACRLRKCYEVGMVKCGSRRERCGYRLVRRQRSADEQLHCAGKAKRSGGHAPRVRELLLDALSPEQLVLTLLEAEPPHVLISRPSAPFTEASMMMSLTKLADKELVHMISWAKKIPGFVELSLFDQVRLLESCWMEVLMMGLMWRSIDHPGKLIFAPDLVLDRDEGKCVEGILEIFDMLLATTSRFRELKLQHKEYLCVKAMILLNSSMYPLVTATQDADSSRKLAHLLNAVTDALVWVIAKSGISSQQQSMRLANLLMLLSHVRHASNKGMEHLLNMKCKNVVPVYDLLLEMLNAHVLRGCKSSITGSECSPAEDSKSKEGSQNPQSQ
test-readout: estradiol binding / displacement at the beta estradiol receptor (in words)

> print(dat)
                                   compound                             target.system            observed
1  Oc1ccc(Oc2ccc(O)cc2)cc1 [C, Dihydroxy Diphenyl Ether, reference compound]  recombinant human estradiol receptors (rhER) beta 1 (β1) (Homo sapiens, UniProt Q92731)  displace estradiol
2  CC(C)(c1ccccc1)c1ccc(O)cc1 [B, p-Cumyl Phenol, reference compound]  recombinant human estradiol receptors (rhER) beta 1 (β1) (Homo sapiens, UniProt Q92731)  displace estradiol
3  COC(=O)CCC(C)(c1ccc(O)cc1)c1ccc(O)cc1 [F, Diphenolic Acid Methyl Ester, reference compound]  recombinant human estradiol receptors (rhER) beta 1 (β1) (Homo sapiens, UniProt Q92731)  displace estradiol

The values you see were collected from patent US8669315B2.
